Data origin, for the record: patent US8133847B2

tested on: Amaranthus retroflexus (AMARE); assay: Example B1 herbicidal action, post-emergence, 96-cell seed trays, climatic chamber; type: in vivo; conditions: Application post-emergence, 1000 mg/l spray equivalent to 1000 g/ha, evaluated after 9 days
Answer each item with its documented damage to plant, Amaranthus retroflexus (AMARE).
# answer = number (no unit)

Memo: "Cc1ccc(F)c(-c2c(OC(=O)C(C)(C)C)c3nccnc3n(C)c2=O)c1Cl" , reported damage to plant, Amaranthus retroflexus (AMARE): 3

Summary for this compound, "C=CCn1c(=O)c(-c2c(Cl)cccc2Cl)c(OC(=O)OCC)c2nccnc21" : damage to plant, Amaranthus retroflexus (AMARE) is 7

Measured damage to plant, Amaranthus retroflexus (AMARE), "O=c1[nH]c2nccnc2c(O)c1-c1ccc(F)cc1Cl" : 9

So, "Cn1c(=O)c(-c2ccccc2C(F)(F)F)c(OC(=O)C(C)(C)C)c2nccnc21" ? Its damage to plant, Amaranthus retroflexus (AMARE) was 3
